# Test system: CMK
# test_details: CellTox Green cytotoxicity fluorescence relative to DMSO vehicle (fold of vehicle RFU); higher = more cell death (loss of membrane integrity), active = 2 or more
# condition_set: 0.01 µM; 72 h
measure_name: CellTox Green cytotoxicity fluorescence
Respond with the number and no other words.

Some entries whose results are on file:
1) COc1cc([C@@H]2c3cc4c(cc3[C@H](O)[C@H]3COC(=O)[C@@H]23)OCO4)cc(OC)c1OC [Picropodophyllin] | 0.973
2) O=C(O)C(=O)c1cn(Cc2ccccc2)c2ccc(-c3ccc(OC(F)(F)F)cc3)cc12 [Tiplaxtinin] | 1
3) Cn1c(COP(=O)(NCCBr)NCCBr)cnc1[N+](=O)[O-] | 0.991
4) COc1cc(C)[nH]c(=O)c1CNC(=O)c1c(C)n([C@H](C)C2CCOCC2)c2ccccc12 | 0.965
5) CC1=C(O)C(=O)C=C2C1=CC=C1[C@@]2(C)CC[C@@]2(C)[C@@H]3C[C@](C)(C(=O)O)CC[C@]3(C)CC[C@]12C [Celastrol] | 0.98

Asked: # query: CellTox Green cytotoxicity fluorescence of entry O=c1[nH]c2ccccc2n1C1CCN(Cc2ccc(-c3[nH]c4cc5ncnc5cc4nc3-c3ccccc3)cc2)CC1
Given back: 0.913

Asked: Record request: CellTox Green cytotoxicity fluorescence value, item CC[C@H](C)[C@@H]([C@@H](CC(=O)N1CCC[C@H]1[C@H](OC)[C@@H](C)C(=O)N[C@H](C)[C@@H](O)c1ccccc1)OC)N(C)C(=O)[C@@H](NC(=O)[C@@H](NC)C(C)C)C(C)C [Monomethyl auristatin E]
Given back: 1.43

Asked: # get_value(readout='CellTox Green cytotoxicity fluorescence', item= CN[C@@H]1C[C@H]2O[C@@](C)([C@@H]1OC)n1c3ccccc3c3c4c(c5c6ccccc6n2c5c31)C(=O)NC4 [Staurosporine] )
Given back: 1.07

Asked: Fill blank: measured CellTox Green cytotoxicity fluorescence of the molecule COc1ccc2c(c1)/C(=C/c1cnc[nH]1)C(=O)N2 is ____.
Given back: 1.04

---

# Test system: Kasumi-1
# test_details: CellTox Green cytotoxicity fluorescence relative to DMSO vehicle (fold of vehicle RFU); higher = more cell death (loss of membrane integrity), active = 2 or more
# condition_set: 1 µM; 24 h
measure_name: CellTox Green cytotoxicity fluorescence
Please reply with the value in numeric form only.

1) COc1ccc2c(c1)/C(=C/c1cnc[nH]1)C(=O)N2 | 0.881
2) CN[C@@H]1C[C@H]2O[C@@](C)([C@@H]1OC)n1c3ccccc3c3c4c(c5c6ccccc6n2c5c31)C(=O)NC4 | 1.67
3) Cn1c(COP(=O)(NCCBr)NCCBr)cnc1[N+](=O)[O-] | 0.977

Asked: Tell me reported CellTox Green cytotoxicity fluorescence for Cc1cc2c(C(C)C)c(O)c(O)c(C=O)c2c(O)c1-c1c(C)cc2c(C(C)C)c(O)c(O)c(C=O)c2c1O , tested with Kasumi-1.
Given back: 0.98

Asked: Give recorded CellTox Green cytotoxicity fluorescence with Kasumi-1 for the following molecule: COc1cc(C)[nH]c(=O)c1CNC(=O)c1c(C)n([C@H](C)C2CCOCC2)c2ccccc12
Given back: 1.03

---

Listed compounds paired with reported CellTox Green cytotoxicity fluorescence
# System: MV4-11
# test_details: CellTox Green cytotoxicity fluorescence relative to DMSO vehicle (fold of vehicle RFU); higher = more cell death (loss of membrane integrity), active = 2 or more
# condition_set: 0.01 µM; 24 h
Would you mind answering with just the numeric figure?

1. O=C(O)C(=O)c1cn(Cc2ccccc2)c2ccc(-c3ccc(OC(F)(F)F)cc3)cc12 | 1.02
2. CC1=C(O)C(=O)C=C2C1=CC=C1[C@@]2(C)CC[C@@]2(C)[C@@H]3C[C@](C)(C(=O)O)CC[C@]3(C)CC[C@]12C | 0.931
3. CC[C@H](C)[C@@H]([C@@H](CC(=O)N1CCC[C@H]1[C@H](OC)[C@@H](C)C(=O)N[C@H](C)[C@@H](O)c1ccccc1)OC)N(C)C(=O)[C@@H](NC(=O)[C@@H](NC)C(C)C)C(C)C | 1.19
4. COc1cc([C@@H]2c3cc4c(cc3[C@H](O)[C@H]3COC(=O)[C@@H]23)OCO4)cc(OC)c1OC | 0.934
5. CN[C@@H]1C[C@H]2O[C@@](C)([C@@H]1OC)n1c3ccccc3c3c4c(c5c6ccccc6n2c5c31)C(=O)NC4 | 0.985

Asked: // map Cn1c(COP(=O)(NCCBr)NCCBr)cnc1[N+](=O)[O-] to recorded CellTox Green cytotoxicity fluorescence (system: MV4-11)
Given back: 0.981

Asked: Give the reported CellTox Green cytotoxicity fluorescence for O=c1[nH]c2ccccc2n1C1CCN(Cc2ccc(-c3[nH]c4cc5ncnc5cc4nc3-c3ccccc3)cc2)CC1 (system: MV4-11).
Given back: 1
